# maps each entry to its MIC
system: E. coli (Ec); assay: Broth microdilution minimum inhibitory concentration (MIC), CLSI; format: cell-based; conditions: Escherichia coli, growth medium with sodium bicarbonate, read-out: E. coli + bicarb MIC

compound | tgt | MIC
CC(Cc1ccc(-n2ccc(NC(=O)N3CCN(C(=O)C(C)(C)N)CC3)nc2=O)cc1F)NC1CC2(CC(N)C2)C1 (stereo not shown) | E. coli (Ec) | < 8 µg/mL
CC(Cc1ccc(-n2ccc(NC(=O)N3CCN(C(=O)C(C)(C)N)CC3)nc2=O)cc1)N(CC(F)(F)F)C1CC2(CC(N)C2)C1 (stereo not shown) | E. coli (Ec) | > 32 µg/mL
CC(Cc1ccc(-n2ccc(NC(=O)N3CCN(C(=O)C(C)(C)N)CC3)nc2=O)cc1)NC12CC(CN)(C1)C2 (stereo not shown) | E. coli (Ec) | 8 to 32 µg/mL
CC(Cc1ccc(-n2ccc(NC(=O)N3CCN(C(=O)C(C)(C)N)CC3)nc2=O)cc1)N(CCO)C1CC2(CC(N)C2)C1 (stereo not shown) | E. coli (Ec) | < 8 µg/mL

###

test system: E. faecalis (Ef); assay: Broth microdilution minimum inhibitory concentration (MIC), CLSI; assay type: cell-based; details: Enterococcus faecalis, growth medium supplemented with sodium bicarbonate, read-out: Ef + bicarb MIC
# maps each entry to its MIC
recorded_endpoint: MIC

compound | recorded_endpoint | result
Cc1cc(-n2ccc(NC(=O)N3CCN(C(=O)C(C)(C)N)CC3)nc2=O)ccc1CCN1C[C@@H]2[C@@H](CN)[C@@H]2C1 | MIC | 8 to 32 µg/mL
CCC(Cc1ccc(-n2ccc(NC(=O)N3CCN(C(=O)C(C)(C)N)CC3)nc2=O)cc1F)N1C[C@@H]2[C@@H](CN)[C@@H]2C1 (stereo partly shown) | MIC | < 8 µg/mL
CCC(Cc1ccc(-n2ccc(NC(=O)N3CCN(C(=O)[C@@](C)(N)CO)CC3)nc2=O)cc1)N1C[C@@H]2[C@@H](CN)[C@@H]2C1 (stereo partly shown) | MIC | < 8 µg/mL
C[C@@H](Cc1ccc(-n2ccc(NC(=O)N3CCN(C(=O)C(C)(C)N)CC3)nc2=O)cc1)N1C[C@@H]2[C@@H](CN)[C@@H]2C1 | MIC | < 8 µg/mL
Cc1cc(-n2ccc(NC(=O)N3CCN(C(=O)C(C)(C)N)CC3)nc2=O)ccc1CCN1CC2CC2(CN)C1 (stereo not shown) | MIC | < 8 µg/mL
CC(C)(N)C(=O)N1CCN(C(=O)Nc2ccn(-c3ccc(CCN4CCC5(CCNC5)C4)cc3)c(=O)n2)CC1 (stereo not shown) | MIC | 8 to 32 µg/mL
NC1CC2(CCN(C(=O)Nc3ccn(-c4ccc(CN5C[C@@H]6[C@@H](N)[C@@H]6C5)cc4)c(=O)n3)CC2)C1 | MIC | 8 to 32 µg/mL
CC(C)CC(Cc1ccc(-n2ccc(NC(=O)N3CCN(C(=O)C(C)(C)N)CC3)nc2=O)cc1)N1C[C@@H]2[C@@H](CN)[C@@H]2C1 (stereo partly shown) | MIC | < 8 µg/mL
CC(C)(N)C(=O)N1CCN(C(=O)Nc2ccn(-c3ccc(CN4CC5(CNC5)C4)cc3)c(=O)n2)CC1 | MIC | > 32 µg/mL
CC(C)(N)C(=O)N1CCN(C(=O)Nc2ccn(-c3ccc(CN4CC5CCC(C4)C5N)cc3)c(=O)n2)CC1 (stereo not shown) | MIC | 8 to 32 µg/mL

###

# maps each entry to its IC50
test system: E. coli S30 extract (bacterial protein synthesis); test: E. coli S30 extract coupled transcription-translation luciferase assay (inhibition of bacterial protein synthesis); assay type: biochemical; conditions: % inhibition @ 1 μM, read-out: S30 IC50 (μM/% inhib.)
recorded_endpoint: IC50

compound | result
CC(Cc1ccc(-n2ccc(NC(=O)N3CCN(C(=O)[C@@H]4CCCN4)CC3)nc2=O)cc1)N1C[C@@H]2[C@@H](CN)[C@@H]2C1 (some centres unmarked) | ≥ 1 µM
CC(Cc1ccc(-n2ccc(NC(=O)N3CCN(C(=O)C(C)(C)N)CC3)nc2=O)cc1)NC12CC(CN)(C1)C2 (centres unmarked) | ≥ 1 µM
CC(Cc1ccc(-n2ccc(NC(=O)N3CCN(C(=O)C4(N)CCC4)CC3)nc2=O)cc1)N1C[C@@H]2[C@@H](CN)[C@@H]2C1 (some centres unmarked) | ≥ 1 µM
CC(Cc1ccc(-n2ccc(NC(=O)N3CCN(C(=O)C(C)(C)N)CC3)nc2=O)cc1)N1CCC2(CC(N)C2)C1 (centres unmarked) [Compound 238] | 0.5 to 1 µM
CC(Cc1ccc(-n2ccc(NC(=O)N3CCN(C(=O)C(C)(C)N)CC3)nc2=O)cc1)NCC1[C@H]2CNC[C@@H]12 (some centres unmarked) | ≥ 1 µM
CCC(Cc1ccc(-n2ccc(NC(=O)N3CCN(C(=O)C(C)(C)N)CC3)nc2=O)cc1C(F)(F)F)N1C[C@@H]2[C@@H](CN)[C@@H]2C1 (some centres unmarked) | 0.5 to 1 µM
CC(Cc1ccc(-n2ccc(NC(=O)N3CCN(C(=O)C(C)(C)N)CC3)nc2=O)cc1)N(CCO)C1CC2(CC(N)C2)C1 (centres unmarked) | ≥ 1 µM
CC(Cc1ccc(-n2ccc(NC(=O)N3CCN(C(=O)C(C)(C)N)CC3)nc2=O)cc1F)NC1CC2(CC(N)C2)C1 (centres unmarked) | ≥ 1 µM

###

# maps each entry to its IC50
tested on: E. coli S30 extract (bacterial protein synthesis); assay: E. coli S30 extract coupled transcription-translation luciferase assay (inhibition of bacterial protein synthesis); type: biochemical; settings: % inhibition @ 1 μM, read-out: S30 IC50 (μM/% inhib.)

compound | IC50
CC(C)[C@@H](N)C(=O)N1CCN(C(=O)Nc2ccn(-c3ccc(CC(C)N4C[C@@H]5[C@@H](CN)[C@@H]5C4)cc3)c(=O)n2)CC1 (stereo partly shown) [Compound 230] | ≥ 1 µM
CCC(Cc1ccc(-n2ccc(NC(=O)N3CCN(C(=O)C(C)(C)N)CC3)nc2=O)cc1)N1C[C@@H]2[C@@H](CNC)[C@@H]2C1 (stereo partly shown) [Compound 221] | ≥ 1 µM
CC(Cc1ccc(-n2ccc(NC(=O)N3CCN(C(=O)C(C)(C)N)CC3)nc2=O)cc1)[N+]1(C)C[C@@H]2[C@@H](CN)[C@@H]2C1 (stereo partly shown) [Compound 220] | < 0.5 µM
CC(Cc1ccc(-n2ccc(NC(=O)N3CCN(C(=O)C(N)CCCN)CC3)nc2=O)cc1)N1C[C@@H]2[C@@H](CN)[C@@H]2C1 (stereo partly shown) [Compound 239] | < 0.5 µM
CC(Cc1ccc(-n2ccc(NC(=O)N3CCN(C(=O)[C@H](C)N)CC3)nc2=O)cc1)N1C[C@@H]2[C@@H](CN)[C@@H]2C1 (stereo partly shown) [Compound 222] | 0.5 to 1 µM
CCN(Cc1ccc(-n2ccc(NC(=O)N3CCN(C(=O)C(C)(C)N)CC3)nc2=O)cc1)C12CC(N)(C1)C2 [Compound 170] | < 0.5 µM
CC(C)(N)C(=O)N1CCN(C(=O)Nc2ccn(-c3ccc(CNC45CC(CN)(C4)C5)cc3)c(=O)n2)CC1 [Compound 173] | ≥ 1 µM
CN(Cc1ccc(-n2ccc(NC(=O)N3CCN(C(=O)C(C)(C)N)CC3)nc2=O)cc1)C12CC(N)(C1)C2 [Compound 169] | ≥ 1 µM
CN(Cc1ccc(-n2ccc(NC(=O)N3CCN(C(=O)C(C)(C)N)CC3)nc2=O)cc1)C12CCC(N)(CC1)CC2 [Compound 165] | 0.5 to 1 µM
CC(C)[C@@H](N)CC(=O)N1CCN(C(=O)Nc2ccn(-c3ccc(CC(C)N4C[C@@H]5[C@@H](CN)[C@@H]5C4)cc3)c(=O)n2)CC1 (stereo partly shown) [Compound 235] | ≥ 1 µM
CCC(Cc1ccc(-n2ccc(NC(=O)N3CCN(C(=O)C(C)(C)N)CC3)nc2=O)cc1)N1CC2CCC(N)CC2C1 (stereo not shown) [Compound 244] | 0.5 to 1 µM
NCC1CN(C(=O)Nc2ccn(-c3ccc(CN4C[C@@H]5[C@@H](N)[C@@H]5C4)cc3)c(=O)n2)C1 [Compound 254] | 0.5 to 1 µM
CC(C)(N)C(=O)N1CCN(C(=O)Nc2ccn(-c3ccc(CN4C[C@@H]5C([C@H](N)CO)[C@@H]5C4)cc3)c(=O)n2)CC1 (stereo partly shown) [Compound 207] | < 0.5 µM
